Exercise: state measured Percent Effect for each of the compounds provided.
Target entity: Proteasome subunit beta (Trypanosoma cruzi)
Test summary: Trypanosoma cruzi proteasome chymotrypsin-like activity (TcProtChymo) assay.
Type: functional
Parameters: scale not given: in the data most compounds retested in dose-response had high values
Cond: 9.37 µM

Query :: Data request, read-out Percent Effect, for CC(C(=O)N1CCCN(c2ncccc2C#N)CC1)n1cccn1 (stereo unspecified)
Result :: 4.32%

Query :: Data request, read-out Percent Effect, for "CN1CCCN(c2nccc(-c3c[nH]nc3C3CCCCC3)n2)CC1"
Result :: 24%

Query :: Data request, read-out Percent Effect, for "O=C(c1ccc[nH]1)N1C[C@H]2CC[C@@H]1CN(c1ncccn1)C2"
Result :: 6.49%

Query :: Data request, read-out Percent Effect, for "Cc1ccc2cc(CNCCCN3CCOCC3)c(=O)[nH]c2c1"
Result :: 6.08%

Query :: Data request, read-out Percent Effect, for "Cc1csc(CNC(=O)Nc2cc(C(F)(F)F)c[nH]c2=O)n1"
Result :: 13.3%

Query :: Data request, read-out Percent Effect, for "Cc1cc(N2CCC3(CCC(=O)N(CC4CC4)C3)CC2)nc(N)n1"
Result :: 8.15%

Query :: Data request, read-out Percent Effect, for Cc1nc(C2CCCCN2C(=O)c2ccccc2)ncc1C(=O)N(C)C (stereo unspecified)
Result :: 0.0881%

Query :: Data request, read-out Percent Effect, for CNCC(=O)N1CCC(c2ccnc(Nc3ccc(C)cn3)n2)C1 (stereo unspecified)
Result :: 17.9%

Query :: Data request, read-out Percent Effect, for "O=C(CSc1ccccn1)N1C[C@H]2CC[C@@H]1CN(Cc1cscn1)C2"
Result :: 13.9%

Query :: Data request, read-out Percent Effect, for "O=S(=O)(c1cccs1)N1CCCn2cnc(CN3CCCC3)c2C1"
Result :: 13.8%

Query :: Data request, read-out Percent Effect, for "CC(C)CCn1[nH]c(CNc2ccccc2)nc1=O"
Result :: 16.2%
